experiment: In vitro cytotoxicity testing (3T3 NRU test); type: cell-based; conditions: mouse; BALB/3T3 cells, NRU, 24 h, 30 to 4000 μM; read-out: IC50 of Mean ± SD, Cytotoxicity, BALB/3T3
Readout: IC50 at 24 h (µM)
Quick note: give the figure in µM, leave out the unit.

Tell me the measured IC50 at 24 h of `CC(C)C[C@H](NC(=O)[C@H](CCCCN)NC(=O)[C@H](C)NC(=O)[C@H](CC(C)C)NC(=O)[C@H](CCCCN)NC(=O)[C@H](CCCCN)NC(=O)[C@H](C)NC(=O)[C@H](CC(C)C)NC(=O)[C@H](CCCCN)NC(=O)[C@H](C)NC(=O)[C@H](CC(C)C)NC(=O)[C@@H](N)CCCCN)C(=O)N[C@@H](C)C(=O)N[C@@H](CCCCN)C(N)=O` , please. 365
